- system: UniProt P49840
- Sequence (P49840 whole entry, looked up): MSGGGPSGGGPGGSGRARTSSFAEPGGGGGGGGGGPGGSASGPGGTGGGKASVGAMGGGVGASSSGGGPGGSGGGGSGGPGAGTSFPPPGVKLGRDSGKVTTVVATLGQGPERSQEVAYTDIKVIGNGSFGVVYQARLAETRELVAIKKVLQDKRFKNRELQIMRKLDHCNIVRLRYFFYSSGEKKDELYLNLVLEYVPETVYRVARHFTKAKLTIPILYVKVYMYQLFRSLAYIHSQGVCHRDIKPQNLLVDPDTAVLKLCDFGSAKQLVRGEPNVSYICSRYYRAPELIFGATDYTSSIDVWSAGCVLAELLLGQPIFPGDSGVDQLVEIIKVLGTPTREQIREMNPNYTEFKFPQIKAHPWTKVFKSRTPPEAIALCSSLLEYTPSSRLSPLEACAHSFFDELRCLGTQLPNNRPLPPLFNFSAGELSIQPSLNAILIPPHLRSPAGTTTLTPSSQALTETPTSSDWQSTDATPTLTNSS
- assayProtocol: concentration-response blocking of human GSK3A – biochemical, luminescence, cell-free homogeneous, retest, dose response (AID 463203)
- assaySetup: GSK-3 alpha enzyme, ADP-Glo luminescence, 60 min
The source made the active and inactive calls.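 Rule for the calls: active = more than half of replicate measurements showing over 20% loss of kinase signal relative to plate controls; inconclusive = some but at most half of replicates over 20% loss; inactive = no replicate over 20% signal loss.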
Outcomes you can answer with include only these: 1 = active, 0 = inactive

These solved cases illustrate the format of a correct answer.
>>> classlabel("CN1/C(=C/C=C(C#N)C#N)C(C)(C)c2ccccc21")
0
>>> classlabel("O=C(COC(=O)C1CCC1)c1c[nH]c2ccccc12")
0
>>> classlabel("CCOC(=O)C1=C(O)/C(=C\\c2sccc2C)N=C1C")
0

// query Test call for this compound, please: "COc1cc(/C=N/NC(=O)c2ccc(COc3ccccc3Cl)o2)cc(Br)c1O"
// result 0

// query Fill in: this test's call for "O=C(CSc1ccc2nnc(-c3ccc(F)cc3)n2n1)N1CCCc2ccccc21" is ___
// result 1

// query What call does the record list for "O=C(Nc1cccc(Cl)c1N1CCOCC1)c1ccc(Br)o1" ?
// result 0

// query Please state the recorded outcome for this compound: "CN(C(=O)CN1CC=C(c2ccccc2)CC1)c1c(N)n(Cc2ccccc2)c(=O)[nH]c1=O"
// result 0
